Attribution: patent US9783530B2

Biological target: UniProt:P03951
Test: Factor XIa Assay
Format: biochemical
Conditions: purified human Factor XIa 40 pM, substrate Z-Gly-Pro-Arg-AFC, pH 7.4; read-out: FXIa IC50
assayReadout: IC50 (µM)
Lab book: enter the figure in µM, no units written.

Quick note, IC50 for O=C(O)c1ccc(NC(=O)C(CC2CC2)c2ccc(-c3c(-n4cnnn4)ccc(Cl)c3F)c[n+]2[O-])cc1 (racemic) landed at 0.00019

Quick note, IC50 for N#Cc1ccc(Cl)c(F)c1-c1ccc(C(CC2CC2)C(=O)Nc2ccc(C(=O)O)cc2)[n+]([O-])c1 (single isomer, unassigned) [Example 29] landed at 0.458

Quick note, IC50 for O=C(O)c1ccc(NC(=O)[C@@H](CC2CC2)c2ccc(-c3cc(Cl)ccc3-n3cnnn3)c[n+]2[O-])cc1 landed at 0.037

Quick note, IC50 for O=C(NC12CCC(C(=O)O)(CC1)CC2)C(Cc1ccccc1)c1ccc(-c2cc(Cl)ccc2-n2cnnn2)c[n+]1[O-] (single isomer, unassigned) [Example 17] landed at 0.00076

Quick note, IC50 for O=C(Cc1ccc(-c2cc(Cl)ccc2-n2cnnn2)c[n+]1[O-])Nc1ccc(C(=O)O)cc1 landed at 0.0185

Quick note, IC50 for O=C(NC12CCC(C(=O)O)(CC1)CC2)C(Cc1ccccc1)c1ccc(-c2cc(Cl)ccc2-n2cnnn2)c[n+]1[O-] (single isomer, unassigned) [Example 18] landed at 0.271

====

Target: purified human Factor XIa (Homo sapiens (Human))
Sequence (P03951 388-625): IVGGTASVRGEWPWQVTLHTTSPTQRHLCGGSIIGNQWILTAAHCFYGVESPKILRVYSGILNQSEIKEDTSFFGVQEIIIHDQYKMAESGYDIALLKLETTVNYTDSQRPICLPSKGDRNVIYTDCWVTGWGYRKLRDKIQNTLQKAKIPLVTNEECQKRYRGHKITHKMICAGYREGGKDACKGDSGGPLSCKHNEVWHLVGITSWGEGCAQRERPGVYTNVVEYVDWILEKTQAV
Sequence (P03951 19-387 partner): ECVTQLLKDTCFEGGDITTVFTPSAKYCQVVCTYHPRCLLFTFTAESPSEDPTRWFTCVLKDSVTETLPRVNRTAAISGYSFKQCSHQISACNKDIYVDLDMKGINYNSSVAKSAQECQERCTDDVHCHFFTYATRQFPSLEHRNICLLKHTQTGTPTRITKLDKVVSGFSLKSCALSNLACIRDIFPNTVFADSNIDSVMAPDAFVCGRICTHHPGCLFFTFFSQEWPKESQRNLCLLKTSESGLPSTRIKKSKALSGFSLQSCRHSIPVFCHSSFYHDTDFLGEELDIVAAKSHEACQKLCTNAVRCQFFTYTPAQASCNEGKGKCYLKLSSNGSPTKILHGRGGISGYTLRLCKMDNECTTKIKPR
Listed molecules paired with reported pIC50
The scale used: pIC50 is minus the common logarithm of the concentration in molar units.

Illustrative cases are given below, each with its answer.
| molecule | valueMeasured |
| --- | --- |
| O=C(Nc1ccc2cn[nH]c2c1)C(Cc1ccccc1)c1ccc(-c2c(F)ccc(Cl)c2F)c[n+]1[O-] (racemic) | 6.96 |
| O=C(O)c1ccc(NC(=O)C(CC2CC2)c2ccc(-c3cc(Cl)ccc3-n3cnnn3)c[n+]2[O-])c(Cl)c1 (single isomer, unassigned) [Example 32] | 8.47 |
| O=C(O)c1ccc(NC(=O)[C@@H](Cc2ccccc2)c2ccc(-c3cc(Cl)ccc3-n3cnnn3)c[n+]2[O-])cc1 | 7.49 |

Entry O=C(Cc1ccc(-c2cc(Cl)ccc2OC(F)F)c[n+]1[O-])Nc1ccc(C(=O)O)cc1 ; assay system purified human Factor XIa (Homo sapiens (Human)); pIC50 recorded at 6.15

Entry Cc1cc(NC(=O)C(CC2CC2)c2ccc(-c3cc(Cl)ccc3-n3cnnn3)c[n+]2[O-])ccc1C(=O)O (single isomer, unassigned) ; assay system purified human Factor XIa (Homo sapiens (Human)); pIC50 recorded at 9.34

Entry Cc1c(-c2c(F)ccc(Cl)c2F)ccc(C(Cc2ccccc2)C(=O)Nc2ccc(C(=O)O)cc2)[n+]1[O-] (stereo not drawn) ; assay system purified human Factor XIa (Homo sapiens (Human)); pIC50 recorded at 6.16

====

Listed compounds paired with reported pIC50
Biological target: purified human Factor XIa (Homo sapiens (Human))
The scale used: pIC50 is minus the common logarithm of the concentration in molar units.

| compound | pIC50 |
| --- | --- |
| O=C(O)c1ccc(NC(=O)C(CC2CC2)c2ccc(-c3cc(Cl)ccc3OC(F)(F)F)c[n+]2[O-])cc1 (single isomer, unassigned) [Example 38] | 6.00 |
| O=C(NC12CCC(C(=O)O)(CC1)CC2)C(Cc1ccccc1)c1ccc(-c2c(F)ccc(Cl)c2F)c[n+]1[O-] (single isomer, unassigned) [Example 16] | 5.00 |

Lab note: next compound to report on.
Entry Cc1cc(C(=O)O)ccc1NC(=O)C(CC1CC1)c1ccc(-c2cc(Cl)ccc2-n2cnnn2)c[n+]1[O-] (single isomer, unassigned) [Example 46] ; assay system purified human Factor XIa (Homo sapiens (Human)); pIC50 recorded at 6.00
